Entry source: paper PMC6849348

test system: malate synthase (MS, GlcB) (Mycobacterium tuberculosis, UniProt P9WK17 1-741)
Sequence (P9WK17 whole entry): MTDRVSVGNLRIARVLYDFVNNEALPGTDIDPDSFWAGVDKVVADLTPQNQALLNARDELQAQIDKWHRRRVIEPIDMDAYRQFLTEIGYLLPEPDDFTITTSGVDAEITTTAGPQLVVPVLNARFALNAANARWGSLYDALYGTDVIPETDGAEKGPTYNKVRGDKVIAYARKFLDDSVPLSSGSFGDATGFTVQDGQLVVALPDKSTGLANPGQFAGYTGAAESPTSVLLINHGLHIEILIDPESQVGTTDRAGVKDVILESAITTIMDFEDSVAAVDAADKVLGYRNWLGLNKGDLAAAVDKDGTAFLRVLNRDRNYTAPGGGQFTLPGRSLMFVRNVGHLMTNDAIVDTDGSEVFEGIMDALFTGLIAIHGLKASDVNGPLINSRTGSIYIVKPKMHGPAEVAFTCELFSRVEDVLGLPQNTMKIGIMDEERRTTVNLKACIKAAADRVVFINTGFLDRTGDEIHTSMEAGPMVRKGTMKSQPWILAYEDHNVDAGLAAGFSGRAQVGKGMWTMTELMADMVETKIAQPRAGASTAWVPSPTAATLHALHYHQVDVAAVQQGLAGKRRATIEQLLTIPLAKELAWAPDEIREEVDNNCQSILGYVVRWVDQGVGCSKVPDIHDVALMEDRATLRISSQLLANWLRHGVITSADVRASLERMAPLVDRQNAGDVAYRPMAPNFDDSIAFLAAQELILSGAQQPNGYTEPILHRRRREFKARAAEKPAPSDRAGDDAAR
measurement description: SPR
measurement conditions: protein: recombinant; tags: C-terminal His6; G4 parallel (CD, NMR); modeled as tetramer of 4 strands
quantity name: Kd (pM)
The answer is to be given in pM; state only the numeric part.

Could you tell me which Kd is on file for GGTGGTGGTGG (structured_DNA) [MS10-Trunc] ? 19
